target: UniProt Q8BLA8; test: Ca++ imaging in N2a cells with directed expression of TRPA1, mustard oil activation; details: mouse TRPA1, 100 μM mustard oil, read-out: IC50, inhibition of TRPA1
Sequence (Q8BLA8 whole entry): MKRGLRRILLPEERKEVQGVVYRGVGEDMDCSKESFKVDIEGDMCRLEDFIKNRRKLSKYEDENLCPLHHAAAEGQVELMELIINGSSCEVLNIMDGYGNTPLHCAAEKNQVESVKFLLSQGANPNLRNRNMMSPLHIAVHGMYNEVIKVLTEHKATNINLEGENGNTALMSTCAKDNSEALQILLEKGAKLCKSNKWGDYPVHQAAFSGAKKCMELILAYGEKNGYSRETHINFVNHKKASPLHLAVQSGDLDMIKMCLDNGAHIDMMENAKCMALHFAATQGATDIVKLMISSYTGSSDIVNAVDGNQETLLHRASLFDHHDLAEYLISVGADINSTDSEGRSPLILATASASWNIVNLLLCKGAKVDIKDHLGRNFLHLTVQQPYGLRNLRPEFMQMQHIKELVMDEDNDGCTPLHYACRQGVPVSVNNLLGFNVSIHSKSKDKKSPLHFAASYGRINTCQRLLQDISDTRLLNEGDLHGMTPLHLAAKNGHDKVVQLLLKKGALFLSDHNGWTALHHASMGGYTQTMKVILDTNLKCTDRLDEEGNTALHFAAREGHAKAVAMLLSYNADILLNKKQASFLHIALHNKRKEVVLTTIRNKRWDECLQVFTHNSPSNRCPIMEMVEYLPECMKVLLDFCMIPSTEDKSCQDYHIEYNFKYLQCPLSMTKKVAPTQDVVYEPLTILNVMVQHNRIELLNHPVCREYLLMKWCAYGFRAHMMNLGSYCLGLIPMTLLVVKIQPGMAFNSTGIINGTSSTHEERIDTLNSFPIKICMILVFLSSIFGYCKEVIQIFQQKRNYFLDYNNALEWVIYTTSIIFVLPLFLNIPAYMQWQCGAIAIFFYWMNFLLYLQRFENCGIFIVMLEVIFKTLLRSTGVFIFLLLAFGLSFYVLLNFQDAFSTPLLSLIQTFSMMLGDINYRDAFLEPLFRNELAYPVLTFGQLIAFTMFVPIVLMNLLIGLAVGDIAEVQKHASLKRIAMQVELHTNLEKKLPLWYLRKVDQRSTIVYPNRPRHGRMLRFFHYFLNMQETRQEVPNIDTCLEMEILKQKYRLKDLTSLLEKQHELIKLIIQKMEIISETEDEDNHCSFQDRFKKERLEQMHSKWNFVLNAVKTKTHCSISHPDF
Observation type: IC50 (µM)
Entry rule: numbers only, all in µM.

Inquiry: State the recorded IC50 for this entry: CN(CCc1ccc(Nc2nc(-c3cccnc3)cs2)cc1)Cc1ccccc1 [GSK205]
Reply text: 5.56

###

biological target: TRPV4 (rat) (Rattus norvegicus, UniProt Q9ERZ8); assay: Ca++ imaging in N2a cells with directed expression of TRPV4, activation with GSK101; settings: N2a cells, rat TRPV4, 5 nM GSK101, averaged peak ΔCa++; read-out: IC50, inhibition of TRPV4-mediated Ca++ influx
Sequence (Q9ERZ8 whole entry): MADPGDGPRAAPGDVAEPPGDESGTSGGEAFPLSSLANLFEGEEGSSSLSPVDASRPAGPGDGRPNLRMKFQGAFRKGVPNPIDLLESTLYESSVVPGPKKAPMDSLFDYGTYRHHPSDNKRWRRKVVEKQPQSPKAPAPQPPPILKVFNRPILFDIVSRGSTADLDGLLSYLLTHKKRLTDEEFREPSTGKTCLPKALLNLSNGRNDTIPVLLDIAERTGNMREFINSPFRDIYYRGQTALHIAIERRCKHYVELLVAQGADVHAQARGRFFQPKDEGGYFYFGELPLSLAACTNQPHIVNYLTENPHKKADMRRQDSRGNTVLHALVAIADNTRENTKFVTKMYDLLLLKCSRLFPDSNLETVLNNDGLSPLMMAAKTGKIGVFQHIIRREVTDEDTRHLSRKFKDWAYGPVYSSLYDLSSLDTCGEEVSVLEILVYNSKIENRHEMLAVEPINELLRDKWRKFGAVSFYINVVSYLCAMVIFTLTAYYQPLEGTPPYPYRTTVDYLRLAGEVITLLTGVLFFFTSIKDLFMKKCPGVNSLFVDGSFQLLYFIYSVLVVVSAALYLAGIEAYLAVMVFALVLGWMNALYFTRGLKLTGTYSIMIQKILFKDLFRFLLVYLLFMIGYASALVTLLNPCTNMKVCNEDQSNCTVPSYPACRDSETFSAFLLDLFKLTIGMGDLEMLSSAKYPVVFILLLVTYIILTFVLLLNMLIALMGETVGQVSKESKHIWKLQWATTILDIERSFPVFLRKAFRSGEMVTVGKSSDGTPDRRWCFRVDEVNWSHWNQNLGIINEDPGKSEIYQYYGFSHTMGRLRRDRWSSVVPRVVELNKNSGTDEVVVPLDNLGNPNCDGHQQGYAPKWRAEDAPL
Observation type: pIC50
Formally, pIC50 is defined as -log10 of the concentration c, with c in mol/L.

Inquiry: State the recorded pIC50 for this entry: CN(CCc1ccc(Nc2nc(-c3cccnc3)cs2)cc1)Cc1ccccc1
Reply text: 5.38

Inquiry: State the recorded pIC50 for this entry: CN(CCc1ccc(Nc2nc(-c3ccccc3)cs2)cc1)Cc1ccccc1
Reply text: 6.35

###

molecular target: UniProtKB Q9HBA0; assay: TRPV4-mediated calcium influx in N2a cells with targeted expression of human TRPV4; type: cell-based; parameters: expressed in transfected cells; host or cells: N2a cells; details: 2.5 μM inhibitor, pre-incubation 10 min, 10 nM GSK101
Sequence (Q9HBA0 whole entry): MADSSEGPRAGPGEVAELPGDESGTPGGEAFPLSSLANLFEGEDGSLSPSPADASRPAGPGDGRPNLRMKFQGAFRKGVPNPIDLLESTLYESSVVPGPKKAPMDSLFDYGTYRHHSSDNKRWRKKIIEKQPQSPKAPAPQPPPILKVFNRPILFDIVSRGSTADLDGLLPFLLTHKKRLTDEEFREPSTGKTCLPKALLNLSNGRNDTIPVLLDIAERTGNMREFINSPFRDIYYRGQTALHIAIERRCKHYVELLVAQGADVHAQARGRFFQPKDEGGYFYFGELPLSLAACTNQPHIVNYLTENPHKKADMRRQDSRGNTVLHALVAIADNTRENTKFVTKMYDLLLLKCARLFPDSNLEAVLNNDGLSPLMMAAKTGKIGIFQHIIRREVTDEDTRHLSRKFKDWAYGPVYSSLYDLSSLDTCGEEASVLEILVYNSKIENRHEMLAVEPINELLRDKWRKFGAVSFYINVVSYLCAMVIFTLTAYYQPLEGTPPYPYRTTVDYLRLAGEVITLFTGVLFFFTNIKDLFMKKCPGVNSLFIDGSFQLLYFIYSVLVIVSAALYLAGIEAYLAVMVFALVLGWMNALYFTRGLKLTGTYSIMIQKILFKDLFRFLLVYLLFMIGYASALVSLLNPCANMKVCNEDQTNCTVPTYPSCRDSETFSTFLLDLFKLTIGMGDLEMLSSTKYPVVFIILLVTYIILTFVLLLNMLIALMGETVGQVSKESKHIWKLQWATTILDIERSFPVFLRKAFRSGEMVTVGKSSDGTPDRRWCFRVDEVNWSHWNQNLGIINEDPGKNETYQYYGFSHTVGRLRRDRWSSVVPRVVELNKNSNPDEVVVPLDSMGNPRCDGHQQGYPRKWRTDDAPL
Observation type: inhibition of TRPV4-mediated calcium influx (peak calcium concentration)

[[record]]
compound = "CN(CCc1ccc(Nc2nc(-c3ccccc3)cs2)cc1)Cc1ccccc1 [Compound 16-8]"
value = "most potent"

[[record]]
compound = "CCN(CCc1ccc(Nc2nc(-c3cccnc3)cs2)cc1)Cc1ccccc1 [Compound 16-18]"
value = "most potent"

